biological target: UniProt:P43490; assay: NMN fluorescence biochemical assay (human recombinant NAMPT enzyme assay)
Sequence (P43490 whole entry): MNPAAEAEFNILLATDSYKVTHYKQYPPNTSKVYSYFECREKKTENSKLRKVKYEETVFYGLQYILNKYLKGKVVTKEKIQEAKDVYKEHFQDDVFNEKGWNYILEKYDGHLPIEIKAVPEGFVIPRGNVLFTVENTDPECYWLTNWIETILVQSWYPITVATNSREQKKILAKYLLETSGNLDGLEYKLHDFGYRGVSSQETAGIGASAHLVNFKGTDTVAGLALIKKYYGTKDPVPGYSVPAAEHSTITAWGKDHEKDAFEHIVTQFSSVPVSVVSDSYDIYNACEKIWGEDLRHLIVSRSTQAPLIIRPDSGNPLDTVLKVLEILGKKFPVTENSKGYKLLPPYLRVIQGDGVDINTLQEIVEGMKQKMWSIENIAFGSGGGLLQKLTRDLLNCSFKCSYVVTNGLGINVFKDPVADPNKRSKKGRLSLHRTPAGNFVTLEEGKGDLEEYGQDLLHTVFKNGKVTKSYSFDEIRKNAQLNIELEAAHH
recorded.metric: AC1.4 Human (µM)

Illustrative cases are given below, each with its answer.
{"columns": ["compound", "test.result"],
 "data": [
  ["Cc1ocnc1C(=O)N(C)Cc1ccc(NC(=O)OCc2ccc(Cl)cc2)cc1", 10.65],
  ["COC(=O)N1CCN(C(=O)Cc2ccc(NC(=O)OCc3ccc(Cl)cc3)cc2)CC1", 1.31],
  ["O=C(Nc1ccc(CC(=O)N2CCC(O)CC2)cc1)OCc1ccc(Cl)cc1", 0.95]
]}

P. CN(C)C(=O)N1CCC(Cc2ccc(NC(=O)OCc3cnco3)cc2)C2CC21 (stereo not shown)
Q. CCc1cc(C(=O)NCc2ccc(NC(=O)OCc3ccc(Cl)cc3)cc2)n(C)n1
R. COC1CCN(C(=O)N[C@@H](C)c2ccc(NC(=O)OCc3ccc(Cl)cc3)cc2)CC1
S. O=C(Nc1ccc(COC2CN(C3COC3)C2)cc1)OCc1ccc(Cl)cc1
T. C[C@@H]1CCCN(C(=O)Cc2ccc(NC(=O)OCc3ccc(Cl)cc3)cc2)C1
// query Output the entries ranked by AC1.4 Human from maximum down to minimum. Output spec: labels arranged per the requested ranking.
// result S, T, Q, R, P
(S: 23.64 µM, T: 2.69 µM, Q: 1.87 µM, R: 0.62 µM, P: 0.14 µM)
